Molecular target: Adenosine receptor A1 (Homo sapiens, UniProt P30542)
Sequence (P30542 whole entry): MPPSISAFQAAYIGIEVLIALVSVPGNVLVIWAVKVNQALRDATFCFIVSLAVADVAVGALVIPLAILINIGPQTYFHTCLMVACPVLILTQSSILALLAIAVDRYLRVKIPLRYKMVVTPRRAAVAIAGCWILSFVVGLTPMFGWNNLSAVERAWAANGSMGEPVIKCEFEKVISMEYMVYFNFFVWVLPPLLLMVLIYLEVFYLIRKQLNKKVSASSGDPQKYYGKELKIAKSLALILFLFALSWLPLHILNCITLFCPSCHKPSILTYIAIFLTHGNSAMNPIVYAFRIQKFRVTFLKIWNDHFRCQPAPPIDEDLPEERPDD
Collected set of Ki measured with Adenosine receptor A1 (Homo sapiens, UniProt P30542) across studies.

Use these answered entries as a reference point.
>  <MOLECULE>
CC1=C(C(=O)OC(C)C)C(c2ccco2)NC(=S)N1 (racemic)

>  <Ki>
> 10 µM

$$$$
>  <MOLECULE>
O=c1nc2[nH]c3ccccc3nc-2c(=O)[nH]1

>  <Ki>
> 100 µM

$$$$
>  <MOLECULE>
CC(=O)Oc1ccc2cc(-c3ccsc3)c(=O)oc2c1OC(C)=O

>  <Ki>
> 100 µM

$$$$
>  <MOLECULE>
Sc1nc2ccccc2c2nn(-c3ccccc3)cc12

>  <Ki>
> 1 µM

$$$$
>  <MOLECULE>
c1ccc2nc(-c3nc4ncncc4[nH]3)cnc2c1

>  <Ki>
> 10 µM

$$$$
>  <MOLECULE>
CCCn1c(=O)c2c(nc3n2CC(C)=C3)n(Cc2ccccc2)c1=O

>  <Ki>
> 1 µM

$$$$

q: # get_value(readout= Ki, system= Adenosine receptor A1 (Homo sapiens, UniProt P30542)) for `Cc1ccc(-c2cc3cccc(C)c3oc2=O)cc1`
a: > 100 µM

###

pKi: −log10 of the molar value.
Collected set of pKi measured with UniProtKB P30542 across studies.

Use these answered entries as a reference point.
>  <MOLECULE>
Cn1cc2c(nc(N=C(Nc3ccc(Br)cc3)Nc3ccc(Br)cc3)n3nc(-c4ccco4)nc23)n1

>  <RESULT>
< 6.00

$$$$
>  <MOLECULE>
C#CCn1c(=O)c2c(nc(/C=C/c3cccc(OC)c3)n2C)n(CCCO)c1=O

>  <RESULT>
5.60

$$$$
>  <MOLECULE>
[O-][n+]1cccc(Nc2ncc(-c3ccncn3)c(-c3ccco3)n2)c1

>  <RESULT>
< 5.00

$$$$
>  <MOLECULE>
CCCn1c(=O)c2nc(-c3ccc(OCc4nc(-c5ccc(C#N)cc5)no4)cc3)[nH]c2n(CCC)c1=O

>  <RESULT>
< 5.22

$$$$

q: Quick one: pKi of CCCNC(=O)c1cnn(-c2nc(NC)c3ncn(C4O[C@H](CO)[C@@H](O)[C@H]4O)c3n2)c1 (stereo not given in full) ?
a: < 5.40

###

Collected set of Ki measured with Adenosine receptor A1 (Homo sapiens) across studies.
Biological target: Adenosine receptor A1 (Homo sapiens)
Sequence (P30542 whole entry): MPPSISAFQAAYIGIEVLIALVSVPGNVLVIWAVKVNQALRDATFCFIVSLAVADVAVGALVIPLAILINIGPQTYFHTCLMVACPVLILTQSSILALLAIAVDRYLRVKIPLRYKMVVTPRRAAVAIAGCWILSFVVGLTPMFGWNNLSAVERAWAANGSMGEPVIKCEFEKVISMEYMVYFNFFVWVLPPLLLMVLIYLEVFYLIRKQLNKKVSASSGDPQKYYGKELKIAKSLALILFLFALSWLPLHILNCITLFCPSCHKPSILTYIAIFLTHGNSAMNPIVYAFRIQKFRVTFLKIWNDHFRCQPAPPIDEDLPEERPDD

Use these answered entries as a reference point.
>  <COMPOUND STRUCTURE>
CC(=O)Nc1nc2sc(C)c(C)c2c(=O)[nH]1

>  <RESULT>
> 30 µM

$$$$
>  <COMPOUND STRUCTURE>
CC(=O)Oc1cccc2cc(-c3cccs3)c(=O)oc12

>  <RESULT>
> 100 µM

$$$$
>  <COMPOUND STRUCTURE>
Cn1c(=O)c2c(nc3n2CCN(c2cccc(Cl)c2)C3)n(C)c1=O

>  <RESULT>
≥ 10 µM

$$$$
>  <COMPOUND STRUCTURE>
CC(C)(C)Cn1cc2c(C(N)=O)nc(N)nc2n1

>  <RESULT>
> 90 µM

$$$$
>  <COMPOUND STRUCTURE>
CCCn1c(=O)c2nc(-c3ccc(OCc4noc(-c5ccccc5C)n4)cc3)[nH]c2n(CCC)c1=O

>  <RESULT>
> 10 µM

$$$$
>  <COMPOUND STRUCTURE>
COc1ccc(-c2c(C#N)c(N)nc(SCCO)c2C#N)cc1

>  <RESULT>
0.041 µM

$$$$
>  <COMPOUND STRUCTURE>
Cn1cc2c(nc(NC(=O)Cc3cccs3)n3nc(-c4ccco4)nc23)n1

>  <RESULT>
0.444 µM

$$$$

Please look at the following compound next.
q: Quick one: Ki of `CNc1nc2nn(C)cc2c2nc(-c3ccco3)nn12` ?
a: 1.93 µM
